- Target entity: DNA dC->dU-editing enzyme APOBEC-3G (Homo sapiens)
- Assay summary: qHTS for inhibitors of Vif-A3G interactions: Cherry picks counterscreen;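 note: hits raise yellow fluorescence by blocking Vif-driven A3G-eYFP degradation; nearly all actives have a fitted effect of over 70% in size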;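 for max response: max response given as percent of control signal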
- Test settings: HeLa A3G-eYFP + Vif, eYFP fluorescence, 24 h
Screen size: about 2,100 compounds; about 1,100 (52%) were called active. About 27% were inconclusive and are not listed. So high a share suggests a set chosen from earlier hits. This is one part of the list.
Observable: max response (%)
Dear colleague, please return just the value in %, with no unit written.

Compound	Target entity	Observable	Uom	Recorded result
CCOc1cc(C(=O)NN=C2CCCC2)cc(OCC)c1OCC	DNA dC->dU-editing enzyme APOBEC-3G (Homo sapiens)	max response	%	-1.27
Cc1cccc(C)c1NC(=S)NC(C)CCc1ccccc1 (stereo not given)	DNA dC->dU-editing enzyme APOBEC-3G (Homo sapiens)	max response	%	-1.19

What is its max response for DNA dC->dU-editing enzyme APOBEC-3G (Homo sapiens)? Entry: CC(C)(C)NCC(=Cc1ccccc1)C(=O)c1ccccc1
-3.58

# iterate: CCOC(=O)c1c(CN(CC)CC)n(-c2ccccc2)c2ccc(O)cc12
2.24

###

- Target entity: DNA dC->dU-editing enzyme APOBEC-3G (Homo sapiens)
- Assay summary: qHTS for inhibitors of Vif-A3G interactions: Cherry picks counterscreen;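 note: hits raise yellow fluorescence by blocking Vif-driven A3G-eYFP degradation; nearly all actives have a fitted effect of over 70% in size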; note: potency is the fitted concentration of half-maximal effect
- Test settings: HeLa A3G-eYFP + Vif, eYFP fluorescence, 24 h
- From the text: The recent discovery and characterization of host restriction factors, which provide a potent defense to invading retroviruses, has provided new targets for antiviral drug development. […] In the presence of an inhibitor, it is expected that Vif will be unable to degrade A3G-eYFP and/or A3F-eYFP, resulting in an increase in yellow fluorescence. […]
Screen size: about 2,100 compounds; about 1,100 (52%) were called active. Inconclusive results (about 27%) are left out. So high a share suggests a set chosen from earlier hits. Some of the results follow.
Some molecules, each annotated with its measured Potency.

Bench note: what Potency did COc1cc(C(=O)Nc2nnc(Cc3ccccc3)s2)cc(OC)c1OC show?
12.5 µM (active)

Same lookup for CC#Cc1cc2c(cc1O)CCC1C2CCC2(C)C(O)CCC12 (stereo unspecified) , please.
4.44 µM (active)

How about COc1ccccc1C1=NOC(COc2ccc3c(C)cc(=O)oc3c2)C1 (stereo unspecified) ?
0.559 µM (active)

Then this molecule: Cc1cc(=O)oc2cc(OCC(=O)N3c4ccccc4CC3C)ccc12 (stereo unspecified)
4.44 µM (active)

Same read-out for O=C1S/C(=C/c2ccc(N3CCOCC3)o2)C(=O)N1Cc1ccc(F)cc1 ?
7.04 µM (active)

Entry to check: COc1cc(CCC(=O)Nc2nnc(C)s2)cc(OC)c1OC
8.86 µM (active)

###

Quick reference: max response of the listed items.
- Target entity: DNA dC->dU-editing enzyme APOBEC-3G (Homo sapiens) (UniProt Q9HC16)
- Sequence (Q9HC16 whole entry, looked up): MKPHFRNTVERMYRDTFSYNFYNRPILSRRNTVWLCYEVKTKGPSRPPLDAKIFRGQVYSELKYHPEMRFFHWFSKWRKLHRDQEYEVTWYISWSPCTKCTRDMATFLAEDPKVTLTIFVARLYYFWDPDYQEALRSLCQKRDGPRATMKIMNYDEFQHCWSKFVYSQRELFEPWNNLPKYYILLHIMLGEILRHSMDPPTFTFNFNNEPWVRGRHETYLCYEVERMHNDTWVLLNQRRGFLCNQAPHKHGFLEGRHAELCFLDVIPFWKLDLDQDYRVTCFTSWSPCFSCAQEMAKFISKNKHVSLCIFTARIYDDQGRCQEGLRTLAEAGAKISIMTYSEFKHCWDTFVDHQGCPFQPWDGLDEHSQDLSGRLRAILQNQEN
- Assay summary: qHTS for inhibitors of Vif-A3G interactions: Cherry picks counterscreen;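 note: hits raise yellow fluorescence by blocking Vif-driven A3G-eYFP degradation; nearly all actives have a fitted effect of over 70% in size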;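 for max response: max response given as percent of control signal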
- Test settings: HeLa A3G-eYFP + Vif (tagged APOBEC3G with the HIV-1 protein that degrades it), eYFP fluorescence, 24 h
Out of some 2,100 compounds screened, about 1,100 (52%) were called active. About 27% were inconclusive and are not listed. So high a share suggests a set chosen from earlier hits. The list shows a part of the results.
Answer format: numeric, % implied, no suffix.

Example entries and their recorded answers appear below.
Substance smiles	Observable	Recorded result
Cc1c(C(=O)Nc2ccc(C(C)C)cc2)sc2nc3n(c(=O)c12)CCC3	max response	6.74
COCCN(CCOC)Cc1c(O)ccc2c1O/C(=C\c1ccc(C)o1)C2=O	max response	-11.8
CC1=CC(C)(C)NC(=S)N1c1ccc2ccccc2c1	max response	5

Given the molecule O=C(Nc1ccc(Cl)cn1)c1cccc(S(=O)(=O)N2CCCCCC2)c1 , what is its reported max response?
1.56

Also CCOC(=O)c1c(-c2ccc(OC)cc2)csc1/N=C/C1C(=O)CCCC1=O , if possible.
-18.7

What about COc1ccccc1N1C(=O)c2cccc3c(C(=O)O)ccc(c23)C1=O ?
6.39

# repeat for CCCc1nc2c(C)cc(Br)cn2c1Cc1ccccc1
-5.65

Quick one: COc1ccc(OCCCC(=O)N2CCN(S(=O)(=O)c3cccc(F)c3)CC2)cc1
2.87

Also, COCCNC(=S)N/N=C(\C)c1ccccc1O please.
6.88

Same read-out for C=CCN=c1scc(-c2ccc(F)cc2)n1/N=C/c1ccccn1 ?
-11.2

Check Cc1ccc(NC(=O)C2CCN(S(=O)(=O)c3ccc(Cl)c(C(F)(F)F)c3)CC2)nc1 too.
8.66
